Experiment: Effect of temperature (and pH) on the stability of the solution (purity)
Format: physicochemical
Conditions: 7% solution in water, pH 4.3, day 21, 5° C.
Catalogue of Purity(%) at day 21 (5° C.) readings, one per entry.
# output: bare number, implied unit %

Worked examples follow.
compound	Purity(%) at day 21 (5° C.)
CCN(CC)CCOC(=O)CC1=C(C)C(=Cc2ccc([S+](C)[O-])cc2)c2ccc(F)cc21.Cl (centres unmarked)	97.3
CCN(CC)CCOC(=O)Cc1c(C)n(C(=O)c2ccc(Cl)cc2)c2ccc(OC)cc12.Cl	98.3
CCN(CC)CCOC(=O)C(C)c1ccc2oc(-c3ccc(Cl)cc3)nc2c1.Cl (centres unmarked)	98.0

Data request: Find the measured Purity(%) at day 21 (5° C.) of `CCN(CC)CCOC(=O)Cc1ccc(C(=O)c2ccc(C)cc2)n1C.Cl` and report it.
Data returned: 96.9

Data request: Find the measured Purity(%) at day 21 (5° C.) of `CCN(CC)CCOC(=O)CCc1ccc2cc(OC)ccc2c1.Cl` and report it.
Data returned: 98.2

---

Assay: Effect of concentration on the stability of the solution (purity over time)
Settings: 5 wt %; in water at 25° C.
measured parameter: Purity at hr 0 (%)
# output: bare number, implied unit %

Worked examples follow.
compound	Purity at hr 0, %
CCN(CC)CCOC(=O)Cc1sc(-c2ccccc2)nc1-c1ccc(Cl)cc1.Cl	98.9
CCN(CC)CCOC(=O)C(C)c1ccc2oc(-c3ccc(Cl)cc3)nc2c1.Cl (stereo not shown)	98.5

Data request: Find the measured Purity at hr 0 of `CCN(CC)CCOC(=O)Cc1c(C)n(C(=O)c2ccc(Cl)cc2)c2ccc(OC)cc12.Cl` and report it.
Data returned: 98.5

Data request: Find the measured Purity at hr 0 of `CCN(CC)CCOC(=O)CCc1nc(-c2ccccc2)c(-c2ccccc2)o1.Cl` and report it.
Data returned: 98.5

---

Test: Effect of concentration on the stability of the solution (purity over time)
Conditions: 3 wt %; in water at 25° C.
measured parameter: Purity at Day 14 (%)
# output: bare number, implied unit %

Worked examples follow.
compound	measured parameter	reported value
CCN(CC)CCOC(=O)CCc1ccc2cc(OC)ccc2c1.Cl	Purity at Day 14	96.0
CCN(CC)CCOC(=O)CC1=C(C)C(=Cc2ccc([S+](C)[O-])cc2)c2ccc(F)cc21.Cl (stereo not shown)	Purity at Day 14	95.0
CCN(CC)CCOC(=O)Cc1c(C)n(C(=O)c2ccc(Cl)cc2)c2ccc(OC)cc12.Cl	Purity at Day 14	96.0

Note: attention shifts to another entry.
Data request: Find the measured Purity at Day 14 of `CCN(CC)CCOC(=O)Cc1ccc(C(=O)c2ccc(C)cc2)n1C.Cl` and report it.
Data returned: 94.8

---

Assay: Effect of concentration on the stability of the solution (purity over time)
Conditions: 10 wt %; in water at 25° C.
measured parameter: Purity at Day 28 (%)
# output: bare number, implied unit %

molecule	measured parameter	reported value
CCN(CC)CCOC(=O)CCc1nc(-c2ccccc2)c(-c2ccccc2)o1.Cl	Purity at Day 28	97.4
CCN(CC)CCOC(=O)Cc1c(C)n(C(=O)c2ccc(Cl)cc2)c2ccc(OC)cc12.Cl	Purity at Day 28	97.6
CCN(CC)CCOC(=O)Cc1ccc(C(=O)c2ccc(C)cc2)n1C.Cl	Purity at Day 28	96.5
CCN(CC)CCOC(=O)[C@H](C)c1ccc2cc(OC)ccc2c1.Cl (racemic)	Purity at Day 28	97.6
CCN(CC)CCOC(=O)C(C)c1ccc2oc(-c3ccc(Cl)cc3)nc2c1.Cl (centres unmarked)	Purity at Day 28	97.3
CCN(CC)CCOC(=O)Cc1sc(-c2ccccc2)nc1-c1ccc(Cl)cc1.Cl	Purity at Day 28	97.5

Data request: Find the measured Purity at Day 28 of CCN(CC)CCOC(=O)CC1=C(C)C(=Cc2ccc([S+](C)[O-])cc2)c2ccc(F)cc21.Cl (centres unmarked) and report it.
Data returned: 96.7

Data request: Find the measured Purity at Day 28 of `CCN(CC)CCOC(=O)CCc1ccc2cc(OC)ccc2c1.Cl` and report it.
Data returned: 97.5
